Overview of recorded emission maximum for various molecules
# assayRemarks: solvent given as SMILES
# reportedConditions: in ClCCl
Unit nm implied. Number only.

// known answers, use as guide
substanceSmiles	unit	emission maximum
Cc1cc(C)c(B(c2ccc(N3c4ccccc4Oc4ccccc43)cc2)c2c(C)cc(C)cc2C)c(C)c1	nm	598.46
CN(C)c1ccc(/C=C/c2cc(/C=C/c3ccc(N(C)C)cc3)nc(/C=C/c3ccc(N(c4ccccc4)c4ccccc4)cc3)n2)cc1	nm	533
CCCCn1c2ccccc2c2cc(C#Cc3ccc4ccc5cccc6ccc3c4c56)ccc21	nm	450

For reference, reported emission maximum for "N#CC(C#N)=Cc1cn(-c2ccccc2)nc1-c1ccccc1" stands at 430

For reference, reported emission maximum for "CCCCN1C(=O)C2=C(c3ccc(-c4ccc5c(c4)C(C)(C)c4ccccc4-5)cc3)[N-]C(=O)C2=C1c1ccc(-c2ccc3c(c2)C(C)(C)c2ccccc2-3)cc1" stands at 635

---

# assayRemarks: solvent given as SMILES
# reportedConditions: in CS(C)=O
Assign 1 to entries whose emission maximum meets or exceeds 600 nm; assign -1 to the rest.

Reference set (3 entries):
compound	classLabel
CCOC(=O)c1sc(SC)c2c(=O)[nH]nnc12	-1
Cc1c2oc3c(C)c(N)cc(C(=O)NC4OC(=O)C(C(C)C)N(C)C(=O)CN(C)C(=O)C5CCCN5C(=O)C(C(C)C)NC4=O)c3nc-2c(C(=O)NC2OC(=O)C(C(C)C)N(C)C(=O)CN(C)C(=O)C3CCCN3C(=O)C(C(C)C)NC2=O)c(N)c1=O (configuration not stated)	1
CN(C)c1ccc(C2=[N+]3C(=Nc4c(-c5ccc(OCCCCS(=O)(=O)[O-])cc5)cc(-c5ccc(N(C)C)cc5)n4[B-]3(F)F)C(c3ccc(OCCCCS(=O)(=O)[O-])cc3)=C2)cc1	1

Query compound follows.
hey, is emission maximum for this one >= 600 nm? "Nc1ccc2c(c1)NC(=O)CC(=O)N2"
-1

---

# assayRemarks: solvent given as SMILES
# reportedConditions: in C1COCCO1
measurementName: emission maximum (nm)
Unit nm implied. Number only.

molecule	measurementName	measured
CCCn1c(=O)c(/C=C/c2nc3ccc(C)cc3n(CCC)c2=O)nc2ccc(C)cc21	emission maximum	484
N#Cc1nc2c3ccc(-c4ccc(N(c5ccccc5)c5ccccc5)cc4)cc3c3cc(-c4ccc(N(c5ccccc5)c5ccccc5)cc4)ccc3c2nc1C#N	emission maximum	633.42
CCCCC1=Cc2c3ccc4cccc5ccc(c6cc(-c7ccc(N(c8ccccc8)c8ccccc8)cc7)n(c26)P1(=O)c1ccccc1)c3c45 (stereo not given)	emission maximum	526
CCC1=C(C)C2=C(C)c3c(C)c(CC)c(C)n3[B-](F)(F)[N+]2=C1C	emission maximum	533.2
c1ccc(-c2ccc(-c3ccccc3)cc2)cc1	emission maximum	342

For reference, reported emission maximum for "c1ccc(Nc2nc(Nc3ccccc3)nc(Nc3ccc4c5cccc6cccc(c7cccc3c74)c65)n2)cc1" stands at 487

For reference, reported emission maximum for "COC(=O)c1ccc(/C=C2\N=C(c3ccccc3)NC2=O)cc1" stands at 461

For reference, reported emission maximum for "CCN(CC)c1ccc(/C=C/C2=[O+][B-](F)(F)Oc3c2c(=O)oc2cc(N(CC)CC)ccc32)cc1" stands at 610

For reference, reported emission maximum for "O=C1/C(=C2\Sc3ccc(S(=O)(=O)Cl)cc3C2=O)Sc2ccc(S(=O)(=O)Cl)cc21" stands at 576

For reference, reported emission maximum for "c1ccc(-c2nc(-c3ccc(-c4ccc(-c5nc(-c6ccccc6)c(-c6ccccc6)o5)cc4)cc3)oc2-c2ccccc2)cc1" stands at 428

For reference, reported emission maximum for "CN(C)c1nc(N)nc2c1nc(C#N)n2Cc1ccccc1" stands at 373

For reference, reported emission maximum for COC(=O)C(Cc1ccc2oc(-c3ccc(Nc4ccccc4)cc3)nc2c1)NC(=O)OC(C)(C)C (stereo not given) stands at 410.51

For reference, reported emission maximum for "N#CC(C#N)=C(/C=C/c1cn(-c2ccccc2)nc1-c1ccccc1)c1ccccc1" stands at 461

For reference, reported emission maximum for "CC1(C)CCc2c(c3ccccc3c3nc4c(nc23)c2c(c3ccccc34)OC(C)(C)CC2)O1" stands at 443.26

For reference, reported emission maximum for "COC(=O)c1nc2c(N(C)C)nc(N)nc2n1Cc1ccccc1" stands at 391

Entry source: the Deep4Chem optical property database
